Documented protein stability index across a set of variants
B1: FUT8 (parent)
chain: YPSYKVREKIETVKYPTYPEAEK

Variants of: B1
PROTOCOL DETAILS: protein stability index of a GFP-peptide fusion (GPS, HEK-293T) (PSI 1-6); higher = more stable;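 further: lentivirally expressed fusions sorted by FACS into six bins by GFP to DsRed ratio, PSI derived from sequencing read proportions per bin multiplied by bin number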
CONDITIONS: c terminus: native
The answer should be a number; do not append a unit.

Use these answered entries as a reference point.
YPSYKVREKIETVKYPLYPEAEK [T17L]
3.6
YPSYKVREKIELVKYPTYPEAEK [T12L]
3.14
YDSYKVREKIETVKYPTYPEAEK [P2D]
4.48
YPSYKVREKIGTVKYPTYPEAEK [E11G]
3.59
YPSYKVREKIETVRYPTYPEAEK [K14R]
4.27

**Q:** // query protein stability index value for entry YPSYYVREKIETVKYPTYPEAEK [K5Y]
**A:** 3.62

**Q:** # lookup: protein stability index of YPYYKVREKIETVKYPTYPEAEK [S3Y]
**A:** 4.12

**Q:** Please report the recorded protein stability index for YPSYKVREKIETVKYPTYPEAEN [K23N] .
**A:** 3.95

**Q:** Name the reported protein stability index value associated with the variant YPSYKVREKTETVKYPTYPEAEK [I10T]
**A:** 4.97

**Q:** What value of measured protein stability index is listed for YPSYKVREKNETVKYPTYPEAEK [I10N] ?
**A:** 4.87

**Q:** GET /values?readout=protein stability index&item= YPSYKVREKIETVKYPTYAEAEK [P19A]
**A:** 3.79

**Q:** What value of measured protein stability index is listed for YPSYKVREKIETVKYPTYPEAEP [K23P] ?
**A:** 3.88

**Q:** Requested field: protein stability index. Item: YPIYKVREKIETVKYPTYPEAEK [S3I]
**A:** 4.44

**Q:** What protein stability index value was documented for this variant, YPSRKVREKIETVKYPTYPEAEK [Y4R] ?
**A:** 4.29

**Q:** May I ask what protein stability index has been recorded for YPSYKVREKIETMKYPTYPEAEK [V13M] ?
**A:** 3.7

**Q:** Recorded protein stability index for YPSYKVREKIETVKYPRYPEAEK [T17R] , please?
**A:** 4.34

**Q:** Which protein stability index value is on record for YPSYKVREKIETVKYPTWPEAEK [Y18W] ?
**A:** 3.63

**Q:** // protein stability index lookup, key: YPSYKVREKIETVKYPTAPEAEK [Y18A]
**A:** 4.08

**Q:** Looking for the measured protein stability index of PPSYKVREKIETVKYPTYPEAEK [Y1P] , can you help?
**A:** 5.38

**Q:** Fill blank: measured protein stability index of the variant YPSYKVREKIETVKYPNYPEAEK [T17N] is ____.
**A:** 4.75

**Q:** I would be grateful if you could share the reported protein stability index for YPSYKVREKMETVKYPTYPEAEK [I10M] .
**A:** 4.35

**Q:** Entry YPSYKVREKIETVKYPTIPEAEK [Y18I] : reported protein stability index = ?
**A:** 3.96

**Q:** Suppose we examine the variant YPSYKVREKIEHVKYPTYPEAEK [T12H] ; what protein stability index value has been reported?
**A:** 3.25

**Q:** Requested field: protein stability index. Item: YPSYKVREKIETGKYPTYPEAEK [V13G]
**A:** 4.66

**Q:** protein stability index lookup needed for YPSYKLREKIETVKYPTYPEAEK [V6L] , thanks.
**A:** 4.69

**Q:** Data request, read-out protein stability index, for YPSYKVREKIETVKYPTYPEEEK [A21E]
**A:** 4.97

**Q:** Give the measured protein stability index of YPSYKVREKIEKVKYPTYPEAEK [T12K] .
**A:** 4.71
